A collection of compounds and their measured half-life at 0.5 µM
- Experiment: in vitro
- Setup Conditions: mouse, liver microsomes
- Description: Half life in mouse liver microsomes at 0.5 uM in presence of NADPH by LC-MS/MS method
Readout Label: half-life at 0.5 µM

>>> assay_result("C=C(C)[C@@H]1CC[C@]2(C(=O)NCCN(C)C)CC[C@]3(C)[C@H](CC[C@@H]4[C@@]5(C)CC=C(c6ccc(C(=O)O)cc6)C(C)(C)[C@@H]5CC[C@]43C)[C@@H]12")
"> 2 h"
>>> assay_result("C=C(C)[C@@H]1CC[C@]2(CNCCCN)CC[C@]3(C)[C@H](CC[C@@H]4[C@@]5(C)CC=C(c6ccc(C(=O)O)cc6)C(C)(C)[C@@H]5CC[C@]43C)[C@@H]12")
"> 2 h"
>>> assay_result("C=C(C)[C@@H]1CC[C@]2(CNCCN3CCC(F)(F)CC3)CC[C@]3(C)[C@H](CC[C@@H]4[C@@]5(C)CC=C(c6ccc(C(=O)O)cc6)C(C)(C)[C@@H]5CC[C@]43C)[C@@H]12")
"> 2 h"
>>> assay_result("C=C(C)[C@@H]1CC[C@]2(CNCCN3CCOCC3)CC[C@]3(C)[C@H](CC[C@@H]4[C@@]5(C)CC=C(c6ccc(C(=O)O)cc6)C(C)(C)[C@@H]5CC[C@]43C)[C@@H]12")
"1.5 h"
>>> assay_result("C=C(C)[C@@H]1CC[C@]2(CNCCCN3CCCCC3)CC[C@]3(C)[C@H](CC[C@@H]4[C@@]5(C)CC=C(c6ccc(C(=O)O)cc6)C(C)(C)[C@@H]5CC[C@]43C)[C@@H]12")
"1.5 h"
>>> assay_result("C=C(C)[C@@H]1CC[C@]2(CNCCN(C)C)CC[C@]3(C)[C@H](CC[C@@H]4[C@@]5(C)CC=C(c6ccc(C(=O)O)cc6)C(C)(C)[C@@H]5CC[C@]43C)[C@@H]12")
"> 2 h"
>>> assay_result("C=C(C)[C@@H]1CC[C@]2(CN(CCCN3CCS(=O)(=O)CC3)C3CC3)CC[C@]3(C)[C@H](CC[C@@H]4[C@@]5(C)CC=C(c6ccc(C(=O)O)cc6)C(C)(C)[C@@H]5CC[C@]43C)[C@@H]12")
"> 2 h"
>>> assay_result("C=C(C)[C@@H]1CC[C@]2(C(=O)O)CC[C@]3(C)[C@H](CC[C@@H]4[C@@]5(C)CC=C(c6ccc(C(=O)O)cc6)C(C)(C)[C@@H]5CC[C@]43C)[C@@H]12")
"> 2 h"
